Hello, the source for this data is BigSolDB 2.1, in case you need it.

- assay-setup: in ethanol, 323.15 K

[
  {
    "structure-string": "CCCCCCC1(CCCCCC)c2cc(Br)ccc2-c2ccc(Br)cc21",
    "solubility (mole fraction)": 0.00264
  }
]

----------
- assay-setup: in toluene, 313.15 K

[
  {
    "structure-string": "CCCCCCC1(CCCCCC)c2cc(Br)ccc2-c2ccc(Br)cc21",
    "solubility (mole fraction)": 0.188
  }
]

----------
- assay-setup: in isopropanol, 323.15 K

[
  {
    "structure-string": "CCCCCCC1(CCCCCC)c2cc(Br)ccc2-c2ccc(Br)cc21",
    "solubility (mole fraction)": 0.00392
  }
]
